molecular target: BRAF V600E (Homo sapiens, UniProt P15056, V600E); construct: endogenous C-terminal HiBiT fusion tag on BRAF V600E allele; endogenous in cells; host or cells: A375 clone 1F10 (CRISPR-Cas9 knock-in of the HiBiT tag; parental A375 from ATCC); test: BRAF HiBiT degradation assay, C-terminal HiBiT-tagged BRAF V600E A375 cells (clone 1F10), Nano-Glo HiBiT Lytic assay; type: cell-based; settings: A375 (BRAF V600E, Class 1); DC50 at 50% degradation
Sequence (P15056 whole entry V600E, the tested form may be a part): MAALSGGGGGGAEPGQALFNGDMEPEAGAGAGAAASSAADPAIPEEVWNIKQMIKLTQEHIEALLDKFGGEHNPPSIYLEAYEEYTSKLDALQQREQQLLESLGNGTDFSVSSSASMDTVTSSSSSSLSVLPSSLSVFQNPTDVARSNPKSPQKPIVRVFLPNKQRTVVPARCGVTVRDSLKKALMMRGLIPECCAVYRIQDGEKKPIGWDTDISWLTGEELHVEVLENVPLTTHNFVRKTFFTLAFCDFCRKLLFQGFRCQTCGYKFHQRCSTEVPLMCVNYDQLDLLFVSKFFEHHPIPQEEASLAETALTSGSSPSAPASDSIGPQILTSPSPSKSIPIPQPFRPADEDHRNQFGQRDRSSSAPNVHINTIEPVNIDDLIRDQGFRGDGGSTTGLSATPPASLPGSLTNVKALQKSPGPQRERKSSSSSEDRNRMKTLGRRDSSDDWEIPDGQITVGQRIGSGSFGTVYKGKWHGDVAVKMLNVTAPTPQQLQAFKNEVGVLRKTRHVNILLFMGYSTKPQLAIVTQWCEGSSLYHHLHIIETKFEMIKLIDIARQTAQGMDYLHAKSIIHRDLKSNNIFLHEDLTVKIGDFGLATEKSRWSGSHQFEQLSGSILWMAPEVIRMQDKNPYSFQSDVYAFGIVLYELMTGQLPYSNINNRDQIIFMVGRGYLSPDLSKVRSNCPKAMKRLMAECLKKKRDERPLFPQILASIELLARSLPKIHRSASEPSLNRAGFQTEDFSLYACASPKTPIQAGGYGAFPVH
testReadout: DC50

1) CCCS(=O)(=O)Nc1cc(Cl)cc(-c2cn(-c3ccc(N4CCN(CC5CCN(c6ccc(N7CCC(=O)NC7=O)cc6)CC5)[C@H](C)C4)cc3)nc2-c2ccncc2)c1F; < 10 nM
2) O=C1CC[C@H](c2ccc(N3CCC(CN4CCN(c5ccc(-n6cc(-c7cc(Cl)cc(NS(=O)(=O)C8CCCC8)c7F)c(-c7ccncc7)n6)cc5)CC4)CC3)nc2)C(=O)N1; < 10 nM
3) O=C1CC[C@H](c2ccc(N3CCC(CN4CCN(c5ccc(-n6cc(-c7cc(Cl)cc(NS(=O)(=O)N8CCCC8)c7F)c(-c7ccncc7)n6)cc5F)CC4)CC3)cc2)C(=O)N1; 10 to 50 nM
4) O=C1CCC(c2ccc(N3CCC(CN4CCN(c5cnc(-n6cc(-c7cc(F)cc(NS(=O)(=O)N8CCCC8)c7F)c(-c7ccncc7)n6)nc5)CC4)CC3)nc2)C(=O)N1 (racemic); < 10 nM

API: value(readout=DC50, system=BRAF V600E (Homo sapiens, UniProt P15056, V600E)) for record CCN(C)S(=O)(=O)Nc1cc(Cl)cc(-c2cn(-c3ccc(N4CCN(CC5CCN(c6ccc([C@H]7CCC(=O)NC7=O)cc6)CC5)CC4)cn3)nc2-c2ccncc2)c1F
< 10 nM

API: value(readout=DC50, system=BRAF V600E (Homo sapiens, UniProt P15056, V600E)) for record CCCS(=O)(=O)Nc1cccc(-c2nc(C3CCC4(CC3)CCN(C(=O)CC3CCN(C5CCN(c6ccc7c(c6)C(=O)N(C6CCC(=O)NC6=O)C7=O)CC5)CC3)CC4)sc2-c2ccnc(N)n2)c1F (racemic)
< 10 nM

API: value(readout=DC50, system=BRAF V600E (Homo sapiens, UniProt P15056, V600E)) for record O=C1CCN(c2ccc(N3CCC(CN4CCN(c5ccc(-n6cc(-c7cc(F)cc(NS(=O)(=O)N8CC[C@@H](F)C8)c7F)c(-c7ccncc7)n6)nc5)CC4)CC3)cc2)C(=O)N1
< 10 nM

API: value(readout=DC50, system=BRAF V600E (Homo sapiens, UniProt P15056, V600E)) for record CCN(C)S(=O)(=O)Nc1cc(F)cc(-c2cn(-c3ccc(N4CCN(CC5CCN(c6ccc([C@H]7CCC(=O)NC7=O)cc6)CC5)CC4)cc3)nc2-c2ccncc2)c1F
10 to 50 nM

API: value(readout=DC50, system=BRAF V600E (Homo sapiens, UniProt P15056, V600E)) for record O=C1CCC(c2ccc(N3CCC(CN4CCN(c5cc(F)c(-n6cc(-c7cc(Cl)cc(NS(=O)(=O)N8CCCC8)c7F)c(-c7ccncc7)n6)cc5F)CC4)CC3)nc2)C(=O)N1 (racemic)
< 10 nM

API: value(readout=DC50, system=BRAF V600E (Homo sapiens, UniProt P15056, V600E)) for record CCN(C)S(=O)(=O)Nc1cccc(-c2cn(-c3ccc(N4CCN(CC5CCN(c6ccc([C@@H]7CCC(=O)NC7=O)cn6)CC5)CC4)c(F)c3)nc2-c2ccncc2)c1F
50 to 500 nM

###

target: BRAF D594G (Homo sapiens, UniProt P15056, D594G); construct: Horizon Discovery (HCT-116 BRAF−/− cells); host or cells: HCT-116 BRAF−/− cells, clone 63, lentiviral transduction; test: BRAF HiBiT degradation assay, C-terminal HiBiT-tagged BRAF D594G overexpressed in HCT-116 BRAF−/− cells (clone 63), Nano-Glo HiBiT Lytic assay; assay type: cell-based; settings: BRAF D594G; DC50 at 50%: fitted conc. at Y=50
Sequence (P15056 whole entry D594G): as the sequence (P15056 whole entry V600E, the tested form may be a part) above, with D594G, E600V counted along it
testReadout: DC50

Example cases with answers are listed next.
1) CCCS(=O)(=O)Nc1cccc(-c2nc(C(C)(C)C)sc2-c2ccnc(Nc3cnn(CC4CCN(C[C@H]5CC[C@H](Oc6ccc(C7CCC(=O)NC7=O)cc6)CC5)CC4)c3)n2)c1F (mixture of isomers); > 500 nM
2) CCCS(=O)(=O)Nc1cccc(-c2nc(C(C)(C)C)sc2-c2ccnc(Nc3cnn(C4CCN(C(=O)CN5CCC(c6ccc(NC7CCC(=O)NC7=O)cc6)CC5)CC4)c3)n2)c1F (racemic); > 500 nM

We next turn to a different molecule, shown below.
Item CCCS(=O)(=O)Nc1cccc(-c2nc(-c3ccc(C4CCN(CC5CCN(c6ccc(C7CCC(=O)NC7=O)cn6)CC5)CC4)cc3)sc2-c2ccnc(N)n2)c1F (racemic) has what recorded DC50?
> 500 nM

###

Entries and their measured Dmax follow.
molecular target: BRAF G466V (Homo sapiens, UniProt P15056, G466V); construct: Horizon Discovery (HCT-116 BRAF−/− cells); host or cells: HCT-116 BRAF−/− cells, clone 8, lentiviral transduction; assay: BRAF HiBiT degradation assay, C-terminal HiBiT-tagged BRAF G466V overexpressed in HCT-116 BRAF−/− cells (clone 8), Nano-Glo HiBiT Lytic assay; type: cell-based; details: HCT-116; BRAF G466V; percentage protein degraded at maximal compound effect relative to DMSO
Sequence (P15056 whole entry G466V): as the sequence (P15056 whole entry V600E, the tested form may be a part) above, with G466V, E600V counted along it

Example cases with answers are listed next.
1. CCCS(=O)(=O)Nc1cccc(-c2nc(C(C)(C)C)sc2-c2ccnc(Nc3cnn(C4CCN(CC5CCN(c6ccc(C(=O)N[C@@H]7CCC(=O)NC7=O)nc6)CC5)CC4)c3)n2)c1F; < 30%
2. CCCS(=O)(=O)Nc1cccc(-c2nc(C(C)(C)C)sc2-c2ccnc(Nc3ccc(N4CCN(CC5CCN(c6ccc([C@@H]7CCC(=O)NC7=O)cc6)CC5)CC4)cc3)n2)c1F; 30 to 70%

Item CCCS(=O)(=O)Nc1cccc(-c2nc(C3CCC4(CC3)CCN(C(=O)C3CCN(c5ccc6c(c5)C(=O)N(C5CCC(=O)NC5=O)C6=O)CC3)CC4)sc2-c2ccnc(N)n2)c1F (racemic) has what recorded Dmax?
30 to 70%

###

molecular target: BRAF D594G (Homo sapiens, UniProt P15056, D594G); construct: Horizon Discovery (HCT-116 BRAF−/− cells); host or cells: HCT-116 BRAF−/− cells, clone 63, lentiviral transduction; test: BRAF HiBiT degradation assay, C-terminal HiBiT-tagged BRAF D594G overexpressed in HCT-116 BRAF−/− cells (clone 63), Nano-Glo HiBiT Lytic assay; assay type: cell-based; settings: BRAF D594G (Class 3), HCT-116 BRAF−/− cells; DC50 at 50% degradation
testReadout: DC50

1) C[C@@H]1CN(c2ccc(-n3cc(-c4cc(Cl)cc(NS(=O)(=O)N5CCCC5)c4F)c(-c4ccncc4)n3)nc2)CCN1CC1CCN(c2ccc([C@H]3CCC(=O)NC3=O)cn2)CC1 [Compound 325]; < 10 nM
2) O=C1CCC(N2C(=O)c3ccc(N4CC(CN5CC(c6ccc(-n7cc(-c8ccc9c(c8)CC/C9=N/O)c(-c8ccncc8)n7)cc6)C5)C4)cc3C2=O)C(=O)N1 (racemic) [Compound 262]; > 500 nM
3) O=C1CCN(c2ccc(N3CCC(CN4CCN(c5ccc(-n6cc(-c7cc(Cl)cc(NS(=O)(=O)N8CC(F)C8)c7F)c(-c7ccncc7)n6)c(F)c5)CC4)CC3)nc2)C(=O)N1 [Compound 369]; < 10 nM

Item O=C1CCC(c2ccc(N3CCC(CN4CCN(c5ccc(-n6cc(-c7cc(Cl)cc(NS(=O)(=O)N8CCCC8)c7F)c(-c7ccncc7)n6)cc5)CC4)CC3)c(F)c2)C(=O)N1 (racemic) [Compound 347] has what recorded DC50?
< 10 nM

Item O=C1CCC(c2ccc(N3CCC(CN4CCN(c5ccc(-n6cc(-c7cc(Cl)cc(NS(=O)(=O)N8CCCC8)c7F)c(-c7ccncc7)n6)cn5)CC4)CC3)nc2)C(=O)N1 (racemic) [Compound 352] has what recorded DC50?
< 10 nM

###

biological target: BRAF D594G (Homo sapiens, UniProt P15056, D594G); construct: Horizon Discovery (HCT-116 BRAF−/− cells); host or cells: HCT-116 BRAF−/− cells, clone 63, lentiviral transduction; assay: BRAF HiBiT degradation assay, C-terminal HiBiT-tagged BRAF D594G overexpressed in HCT-116 BRAF−/− cells (clone 63), Nano-Glo HiBiT Lytic assay; type: cell-based; conditions: BRAF D594G (Class 3), HCT-116 BRAF−/− cells; observed Dmax relative to DMSO control
Entries and their measured Dmax follow.

1. O=C1CCC(c2ccc(N3CCC(CN4CCN(c5ccc(-n6cc(-c7cc(C(F)F)cc(NS(=O)(=O)N8CCCC8)c7F)c(-c7ccncc7)n6)c(F)c5)CC4)CC3)nc2)C(=O)N1 (racemic); 30 to 70%
2. CCCS(=O)(=O)Nc1cccc(-c2nc(C3CCC4(CC3)CCN(C(=O)C3CCN(c5ccc(C(=O)NC6CCC(=O)NC6=O)nc5)CC3)CC4)sc2-c2ccnc(N)n2)c1F (racemic); < 30%

API: value(readout=Dmax, system=BRAF D594G (Homo sapiens, UniProt P15056, D594G)) for record CCCS(=O)(=O)Nc1cc(Cl)cc(-c2cn(-c3ccc(N4CCN(CC5CCN(c6ccc(N7CCC(=O)NC7=O)cc6)CC5)[C@H](C)C4)cc3)nc2-c2ccncc2)c1F
30 to 70%
